Test system: maximal electroshock seizure (MES)
assay_text: Maximal electroshock seizure (MES) test in mice
experimental_parameters: Mus musculus, ip, 2 h, read-out: MES, number of mice protected/number of mice tested
readout_type: responders at 300 mg/kg (%)
One number for each entry, in %.

Below: 8 molecules and their reported responders at 300 mg/kg.
                                   molecule                       tested_system             readout_type  numeric_value
0       CCC(CC)COC(=O)Nc1ccc(S(N)(=O)=O)cc1  maximal electroshock seizure (MES)  responders at 300 mg/kg              0
1     CCCC(CCC)COC(=O)Nc1ccc(S(N)(=O)=O)cc1  maximal electroshock seizure (MES)  responders at 300 mg/kg              0
2  CCC(C)CCOC(=O)Nc1ccc(S(N)(=O)=O)cc1 (stereo not shown)  maximal electroshock seizure (MES)  responders at 300 mg/kg            100
3     CC(C)(C)CCOC(=O)Nc1ccc(S(N)(=O)=O)cc1  maximal electroshock seizure (MES)  responders at 300 mg/kg             25
4  CC(C)C(OC(=O)Nc1ccc(S(N)(=O)=O)cc1)C(C)C  maximal electroshock seizure (MES)  responders at 300 mg/kg            100
5  NS(=O)(=O)c1ccc(NC(=O)OCCc2ccccc2)cc1 [Compound 5, phenethyl (4-sulfamoylphenyl)carbamate]  maximal electroshock seizure (MES)  responders at 300 mg/kg             50
6  CCC(C)C(C)OC(=O)Nc1ccc(S(N)(=O)=O)cc1 (stereo not shown)  maximal electroshock seizure (MES)  responders at 300 mg/kg            100
7  CC(COC(=O)Nc1ccc(S(N)(=O)=O)cc1)CC(C)(C)C (stereo not shown)  maximal electroshock seizure (MES)  responders at 300 mg/kg             50

Give measured responders at 300 mg/kg for every item shown.
1. CCCC(COC(=O)Nc1ccc(S(N)(=O)=O)cc1)C(C)CC (stereo not shown)
2. CCCCC(CC)COC(=O)Nc1ccc(S(N)(=O)=O)cc1 (stereo not shown)

## Result
1. 100
2. 25
